Tested on: left auricle muscle
Assay: Contractile force of left auricle muscle excised from rats
Set-up: species or system rat
Conditions: 1 × 10^−7 M; vehicle control:100%
// values below are reported Contractile Force of Auricle Muscles

Molecule	Contractile Force of Auricle Muscles (%)
Oc1cc2c(cc1O)C(Cc1ccc3ccccc3c1)NCC2 (racemic) [Racemic mixture of formula 7 and formula 8, reference compound]	110
Oc1cc2c(cc1O)[C@H](Cc1cccc3ccccc13)NCC2	200
Oc1cc2c(cc1O)[C@H](Cc1ccc3ccccc3c1)NCC2	120
Oc1ccc(C[C@H]2NCCc3cc(O)c(O)cc32)cc1	100
Oc1ccc(CC2NCCc3cc(O)c(O)cc32)cc1 (racemic) [Racemic mixture of formula 3 and formula 4, higenamine, reference compound]	115
Oc1ccc(C[C@@H]2NCCc3cc(O)c(O)cc32)cc1	140
Oc1cc2c(cc1O)[C@@H](Cc1cccc3ccccc13)NCC2	100
Oc1cc2c(cc1O)[C@@H](Cc1ccc3ccccc3c1)NCC2	100
Oc1cc2c(cc1O)C(Cc1cccc3ccccc13)NCC2 (racemic) [Racemic mixture of formula 5 and formula 6, reference compound]	140

====

Assay: Acute toxicity in rat (LD50)
Type: in vivo
Settings: Sprague-Dawley, in vivo, single intravenous injection, read-out: LD50, Intravenous injection
LD50 strictly less than 90 mg/kg = true (1). Otherwise false (0).

Compound	Label class
Oc1cc2c(cc1O)[C@H](Cc1ccc3ccccc3c1)NCC2	false (0)
Oc1ccc(C[C@H]2NCCc3cc(O)c(O)cc32)cc1	false (0)
Oc1cc2c(cc1O)[C@H](Cc1cccc3ccccc13)NCC2	false (0)
Oc1cc2c(cc1O)C(Cc1ccc3ccccc3c1)NCC2 (racemic) [Racemic mixture of formula 7 and formula 8, reference compound]	true (1)
Oc1ccc(C[C@@H]2NCCc3cc(O)c(O)cc32)cc1	false (0)
Oc1cc2c(cc1O)[C@@H](Cc1ccc3ccccc3c1)NCC2	true (1)

====

// values below are reported IC50
System: Rat Thoracic Aortas
Assay: Relaxation of rat thoracic aortas contracted by phenylephrine
Conditions: group containing endothelial cells; 0.1 μM phenylephrine contraction; read-out: IC50 (E+), concentration showing relaxation response of 50%
Method: Experimental group was divided into two groups, group containing endothelial cells of blood vessel and group not containing. Blood vessel of thoracic aortas was induced to contract by treatment with 0.1 μM of phenyleprine under tension of 1 g. Upon arriving at equilibrium, the enantiomers were added to an organ bath in a cumulative manner. Relaxation of thoracic aortas was recorded using a physiograph (Grass P7), calculating their response to the compounds with consideration of their added amount.
Endpoint label: IC50 (µM)

Compound	Units label	Value measured
Oc1cc2c(cc1O)C(Cc1cccc3ccccc13)NCC2 (racemic) [Racemic mixture of formula 5 and formula 6, reference compound]	µM	0.105
Oc1ccc(CC2NCCc3cc(O)c(O)cc32)cc1 (racemic) [Racemic mixture of formula 3 and formula 4, higenamine, reference compound]	µM	9.81
